Reference for the values: the SangsterLogP compilation

property label: logP
Please give only the number in your answer, with no unit.

# structure notation, logP
measured = [
    ("S=C=Nc1ccc(-c2ccc(N=C=S)cc2)cc1", 5.5),
]

In the following, a different molecule is considered.
Return reported logP; argument: `S=C=NCc1ccc2ccccc2c1`
4.42

---

# assay details: method code SF-GLC, from Jha, T.; Debnath, A.; Mazumdar, A.; Sengupta, C.; De, A. (1986). Hansch analysis of antineoplastic agents, 5-N-substituted-2-p-substituted benzenesulfonyl-L-glutamines. Ind. J. Chem., Sect. B, …
property label: logP

What value of measured logP is listed for CCCNC(=O)CCC(NS(=O)(=O)c1ccc(C)cc1)C(=O)O (stereo unspecified) ?
0.13

---

property label: logP
Please reply with the value in numeric form only.

Fill in: logP of CC1CCCC(C)N1NC(=O)c1ccc(Cl)c(S(N)(=O)=O)c1 (stereo unspecified) is ___
1.18

---

property label: logP
In your answer, state the number alone without any accompanying words.

Here's what some known entries look like.
# compound, logP
rows = [
    ("CCCCC(CCC)C(=O)O (stereo not drawn)", 3.01),
    ("CCCC(CC)C(=O)O (stereo not drawn)", 2.23),
]

Read the next record carefully.
Would you mind telling me what logP value was observed for CCCC(C)C(=O)O (stereo not drawn) ?
1.8

---

# assay details: method code SF-AS/HPLC, from Ellington, J. J. (1988). Octanol/water partition coefficients for evaluation of hazardous waste land disposal: Selected chemicals. US Environmental Protection Agency, Environmental Research …
Catalogue of logP values
Please reply with the value in numeric form only.

# structure notation, logP
records = [
    ("C/C=C(/C)C(=O)O[C@H]1CCN2CC=C(COC(=O)[C@@](O)([C@H](C)OC)C(C)(C)O)[C@H]12", 1.28),
]

--- query ---
Which logP reading was recorded for the compound `O=[N+]([O-])c1cc(C2CCCCC2)c(O)c([N+](=O)[O-])c1` ?
4.12

---

# assay details: method code SF-HPLC, from DOI: 10.1007/bf03246517
property label: logP

# lookup: logP of `OCCc1ccc(O)cc1`
0.69

---

# assay details: method code SF-HPLC, from DOI: 10.1016/s0021-9673(01)81976-2, PMID: 4066822
Measured logP, listed per entry.

# structure notation, reported value
records = [
    ("COC1=C(OC)C(=O)C(OC)=C(OC)C1=O", 0.41),
]

Next item in the queue.
Value lookup for logP; key = `COC1=CC(=O)C(OC)=C(OC)C1=O`
0.22

---

// values below are reported logP

Known results for compounds:
# structure notation, reported value
rows = [
    ("CCOC(=O)c1cc(Cl)nc(Cl)c1", 3.6),
    ("O=C(O)c1cc(Cl)nc(Cl)c1", 2.6),
    ("O=C(O)c1nc(Cl)ccc1Cl", 1.06),
]

The record that follows has no logP shown yet.
Bench note: what logP did `O=C(O)c1cc(Br)nc(Br)c1` show?
2.8

---

Below is a list of entries, each paired with its recorded logP value.
Give the value as a plain number.

# molecule, logP
data = [
    ("CCN(CC)CCSCc1ccccc1", 2.66),
]

// moving on: another record for logP
Give its logP value. Item: CN1CC(NC(=O)CSC(=O)c2ccccc2)CC2c3cccc4[nH]cc(c34)CC21 (configuration not stated)
1.9

---

# assay details: method code SF-RC, from PMID: 3346819
# experimental conditions: pH 7.4
property label: logD

For the compound shown here, CC(CNC(=O)c1ccccc1)C(=O)OCC(=O)C12OC(C)(C)OC1CC1C3CCC4=CC(=O)C=CC4(C)C3(F)C(O)CC12C (stereo unspecified) , give the reported logD.
2.3

---

# assay details: method code SF-EPR, from DOI: 10.1016/0003-9861(82)90097-2, PMID: 6284047
# experimental conditions: pH 7.4
property label: logD
Give the figure only, with no unit attached.

Field request: logD | item: CCC1(C)OCC(C)(C)N1O (stereo unspecified)
0.57

---

# assay details: method code SF-HPLC, from DOI: 10.2174/1871523013666141114203105, PMID: 25403255
# experimental conditions: pH 7.4
logD overview
Keep it simple and answer with nothing but the number.

# structure notation, logD
records = [
    ("COc1ccccc1OC(=O)COC(=O)Cc1ccccc1Nc1c(Cl)cccc1Cl", 4.6),
]

Requested read-out: logD. Entry: `COc1cc(C=O)ccc1OC(=O)COC(=O)Cc1ccccc1Nc1c(Cl)cccc1Cl`
4.86

Also need `C=CCc1ccc(OC(=O)COC(=O)Cc2ccccc2Nc2c(Cl)cccc2Cl)c(OC)c1` , thanks.
5.13

---

Measured logP by item

# structure notation, logP
records = [
    ("CC(=O)c1ccc2cccccc1-2", 2.87),
]

Consider the additional compound presented here.
What measured logP goes with `O=Cc1ccc2cccccc1-2` ?
2.64

---

This listing pairs compounds with measured logP.
# assay details: method code SF-AS, from DOI: 10.1002/chin.199416148, PMID: 8117185
No unit in the answer, only the number.

# compound, reported value
data = [
    ("O=C(CCN1CCCC1)CN1C(=O)C2CC=CCC2C1=O (configuration not stated)", 1.11),
]

Pending compound:
Consider the compound shown here: O=C(CCN1CCOCC1)CN1C(=O)C2CC=CCC2C1=O (configuration not stated) What is its recorded logP?
0.56

---

# assay details: method code SF-AS, from PMID: 17401091
# experimental conditions: pH 7.4
property label: logD
Note: the reply should be a number with no unit written.

So what's the measured logD for this one? `CN(C)c1ncc(C=Cc2nc3ccc(OCCF)cc3o2)s1`
1.75

---

property label: logP
Lab note: jot the number down without any unit.

Entry `NC(=O)c1cn(Cc2c(F)cccc2F)nn1` : reported logP = ?
0.88

---

# assay details: method code SF-AS, from DOI: 10.1248/cpb.17.2558
# experimental conditions: pH 2.0
property label: logD
Keep it simple and answer with nothing but the number.

Give its logD value. Item: `NS(=O)(=O)c1ccc(Cl)c(Cl)c1`
1.44

---

Collected logP values appear next to each entry.
# assay details: method code SF, from DOI: 10.1021/jm00114a024, PMID: 1920362
Lab note: record the figure alone, no unit after it.

May I ask what logP has been recorded for `CNCCN(C)S(=O)(=O)c1ccc(CONC(N)=O)c([N+](=O)[O-])c1` ?
0.45

Another molecule: `CN(C)CCN(C)S(=O)(=O)c1ccc(C(C)(C)[N+](=O)[O-])c([N+](=O)[O-])c1`
1.42

---

# assay details: from Nishimura, K.; Okajima, N.; Fujita, T.; Nakajima, M. (1982). Quantitative structure-activity studies of substituted benzylchrysanthemates. IV. Physicochemical properties and rate of progress of the …
Reported logP values follow for various compounds
Keep the answer to the number alone.

# compound, logP
data = [
    ("CC=CCOC(=O)[C@@H]1[C@@H](C=C(C)C)C1(C)C", 5.09),
]

Would you kindly share the measured logP for C=CCC1(C(=O)OC)C(C=C(C)C)C1(C)C (configuration not stated) ?
4.89

---

# assay details: method code SF-AS, from DOI: 10.1002/em.2850200210, PMID: 1505530
property label: logP
Write the number on its own, no unit after it.

Tell me the measured logP of `O=C1c2ccccc2-c2cc([N+](=O)[O-])ccc21` , please.
3.06

---

# assay details: method code SF-AS, from DOI: 10.1081/jlc-120022394
property label: logP

# structure notation, property label, reported value
rows = [
    ("CCOC(=O)C(=Cc1ccc(OC)c(OC)c1)NC=O", "logP", 1.97),
]

Lab note: next compound to report on.
Looking for the measured logP of `CCOC(=O)C(=Cc1ccc(OC)cc1)NC=O` , can you help?
2.22

---

# assay details: method code SF-GLC, from DOI: 10.1021/je00020a050
property label: logP
Returns: the value as a bare number; no unit string appended.

# structure notation, reported value
data = [
    ("COc1c(Cl)cc(Cl)cc1Cl", 4.02),
]

Returns the measured logP for the input compound. Input: `COc1cc(Cl)c(Cl)cc1OC`
3.11

---

property label: logP
Reply with just the number.

Consider the compound `FCCCN1CCC[C@H]1COc1cccnc1` and give its measured logP.
2.2

---

Overview of reported logP across a group of compounds:
# assay details: method code SF-GLC, from DOI: 10.1002/etc.5620080910
API doc: respond with a numeric literal and nothing else, no unit.

# structure notation, logP
rows = [
    ("O=[N+]([O-])c1c(Cl)cc(Cl)cc1Cl", 3.69),
]

Can you share its logP? I mean this compound: `O=[N+]([O-])c1cc(Cl)c(Cl)c(Cl)c1Cl`
3.93
